biological target: RORc ligand binding domain (Homo sapiens, UniProt P51449)
Sequence (P51449 269-508 limits assumed): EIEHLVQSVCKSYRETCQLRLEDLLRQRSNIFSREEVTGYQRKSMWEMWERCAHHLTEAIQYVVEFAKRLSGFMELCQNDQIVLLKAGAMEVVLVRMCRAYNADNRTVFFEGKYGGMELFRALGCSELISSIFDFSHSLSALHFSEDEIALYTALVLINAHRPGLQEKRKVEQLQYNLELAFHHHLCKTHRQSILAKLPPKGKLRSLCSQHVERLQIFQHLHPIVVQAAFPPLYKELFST
pIC50: −log10 of the molar value.
property name: pIC50

Use these answered entries as a reference point.
CC1(C)[C@@H]2CC[C@@]1(C(=O)N1CC(n3cccn3)C1)c1nnc(-c3c(F)cccc3F)cc12 [Example 232]: 6.63
Cc1nnc([C@@]23CC[C@@H](c4cc(-c5c(F)cccc5F)nnc42)C3(C)C)o1 [Example 67]: 7.51

I. C[C@H]1CN(C[C@@]23CC[C@@H](c4cc(-c5c(F)cccc5F)nnc42)C3(C)C)C(=O)O1 [Example 315]
II. CC1(C)[C@H]2CC[C@]1(c1nnc(CO)o1)c1nnc(-c3c(F)cccc3F)cc12 [Example 68]
Given the listed items, does I or II have the lesser reported pIC50? Pick one and reply with its label. I

Origin of values: patent US9981916B2
